# Test system: A431
# method: LBPA endosome anti-LBPA integrated intensity (sum per cell), Z-score; higher = more LBPA staining
# conditionNotes: compound concentration in added solution (µM; 5 µl added to 20 µl cells): 10; 18 h
Where a name gives a salt, the structure may show the parent alone.
Label NO if LBPA endosome anti-LBPA integrated intensity (z-score) falls below -0.4; label YES in every other case.

Some entries whose results are on file:
{"compound": "Cc1ccc(-c2ncc(Cl)cc2-c2ccc(S(C)(=O)=O)cc2)cn1", "groupLabel": "NO"}
{"compound": "CCn1cc(C(=O)O)c(=O)c2cc(F)c(N3CCN(C)CC3)cc21", "groupLabel": "NO"}
{"compound": "CNc1ncnc2c1ncn2[C@@H]1O[C@H](CO)[C@@H](O)[C@H]1O", "groupLabel": "YES"}
{"compound": "N#CC(c1ccc(Cl)cc1)c1c(Cl)cc(-n2ncc(=O)[nH]c2=O)cc1Cl (stereo unspecified)", "groupLabel": "YES"}
{"compound": "CC(=O)c1ccc(S(=O)(=O)NC(=O)NC2CCCCC2)cc1 [Acetohexamide]", "groupLabel": "NO"}

Determine whether this compound has LBPA endosome anti-LBPA integrated intensity (z-score) no lower than -0.4: C#C[C@]1(O)CC[C@H]2[C@@H]3CCC4=CC(=O)CC[C@@H]4[C@H]3CC[C@@]21CC [Norgestrel-(-)-D] NO

Determine whether this compound has LBPA endosome anti-LBPA integrated intensity (z-score) no lower than -0.4: CC(=O)Oc1cccc2c1C(=O)c1c(OC(C)=O)cc(C(=O)O)cc1C2=O NO

Determine whether this compound has LBPA endosome anti-LBPA integrated intensity (z-score) no lower than -0.4: CN1CCCC(CC2c3ccccc3Sc3ccccc32)C1 (stereo unspecified) [Metixene hydrochloride] YES

Determine whether this compound has LBPA endosome anti-LBPA integrated intensity (z-score) no lower than -0.4: c1ccc2[nH]c(-c3cscn3)nc2c1 NO

Determine whether this compound has LBPA endosome anti-LBPA integrated intensity (z-score) no lower than -0.4: CC1(C)O[C@@H]2C[C@H]3[C@@H]4C[C@H](F)C5=CC(=O)C=C[C@]5(C)[C@H]4[C@@H](O)C[C@]3(C)[C@]2(C(=O)CO)O1 [Flunisolide] YES

Determine whether this compound has LBPA endosome anti-LBPA integrated intensity (z-score) no lower than -0.4: Cc1cc(C)nc(NS(=O)(=O)c2ccc(N)cc2)n1 [Sulfamethazine sodium salt] YES

* * *

# Tested on: HeLa MZ
# method: LBPA endosome anti-LBPA integrated intensity (sum per cell), Z-score; higher = more LBPA staining
# conditionNotes: compound concentration in added solution (µM; 5 µl added to 20 µl cells): 10; 18 h
Structures can show the parent of a compound that is named as a salt.
Label -1 if LBPA endosome anti-LBPA integrated intensity (z-score) falls below -0.7; label 1 in every other case.

{"compound": "OCc1cc(C(O)CNCCCCCCOCCCCc2ccccc2)ccc1O (stereo unspecified) [Salmeterol]", "experimentalSystem": "HeLa MZ", "groupLabel": 1}
{"compound": "CCCC(C(=O)OCCN(CC)CC)(c1ccccc1)c1ccccc1 [Proadifen hydrochloride]", "experimentalSystem": "HeLa MZ", "groupLabel": 1}
{"compound": "Nc1ccc(S(=O)(=O)NC(=O)c2ccccc2)cc1 [Sulfabenzamide]", "experimentalSystem": "HeLa MZ", "groupLabel": -1}
{"compound": "CC1(C)S[C@@H]2[C@H](NC(=O)[C@H](NC(=O)N3CCNC3=O)c3ccccc3)C(=O)N2[C@H]1C(=O)O [Azlocillin sodium salt]", "experimentalSystem": "HeLa MZ", "groupLabel": 1}
{"compound": "C[C@H](N)[C@H](O)c1cccc(O)c1 [Metaraminol bitartrate]", "experimentalSystem": "HeLa MZ", "groupLabel": 1}

Pending compound:
Determine whether this compound has LBPA endosome anti-LBPA integrated intensity (z-score) no lower than -0.7: C[N+](C)(C)CCCCCC[N+](C)(C)C [Hexamethonium dibromide dihydrate] -1

* * *

# Tested on: A431
# method: LBPA endosome anti-LBPA integrated intensity (sum per cell), Z-score; higher = more LBPA staining
# conditionNotes: compound concentration in added solution (µM; 5 µl added to 20 µl cells): 10; 18 h
Where a name gives a salt, the structure may show the parent alone.
measurementName: LBPA endosome anti-LBPA integrated intensity (z-score)

{"compound": "COc1cc(C)nc(-n2nc(C)cc2OC)n1 [Epirizole]", "reportedMeasurement": -0.401}
{"compound": "COc1ccccc1OCC(O)CO (stereo not given)", "reportedMeasurement": -0.398}
{"compound": "c1ccc(C2CN3CCSC3=N2)cc1 (stereo not given) [Tetramisole hydrochloride]", "reportedMeasurement": -0.644}
{"compound": "Nc1nc(=O)[nH]cc1F", "reportedMeasurement": -0.468}

Query for A431: what LBPA endosome anti-LBPA integrated intensity (z-score) does the record show for C#C[C@]1(O)CC[C@H]2[C@@H]3CCC4=C(CCC(=O)C4)[C@H]3CC[C@@]21C ? -0.487
